Data credit: patent US20250171399A1

Target: human Apo(a) protein (Homo sapiens)
Sequence (P08519 1053-1693 limits assumed): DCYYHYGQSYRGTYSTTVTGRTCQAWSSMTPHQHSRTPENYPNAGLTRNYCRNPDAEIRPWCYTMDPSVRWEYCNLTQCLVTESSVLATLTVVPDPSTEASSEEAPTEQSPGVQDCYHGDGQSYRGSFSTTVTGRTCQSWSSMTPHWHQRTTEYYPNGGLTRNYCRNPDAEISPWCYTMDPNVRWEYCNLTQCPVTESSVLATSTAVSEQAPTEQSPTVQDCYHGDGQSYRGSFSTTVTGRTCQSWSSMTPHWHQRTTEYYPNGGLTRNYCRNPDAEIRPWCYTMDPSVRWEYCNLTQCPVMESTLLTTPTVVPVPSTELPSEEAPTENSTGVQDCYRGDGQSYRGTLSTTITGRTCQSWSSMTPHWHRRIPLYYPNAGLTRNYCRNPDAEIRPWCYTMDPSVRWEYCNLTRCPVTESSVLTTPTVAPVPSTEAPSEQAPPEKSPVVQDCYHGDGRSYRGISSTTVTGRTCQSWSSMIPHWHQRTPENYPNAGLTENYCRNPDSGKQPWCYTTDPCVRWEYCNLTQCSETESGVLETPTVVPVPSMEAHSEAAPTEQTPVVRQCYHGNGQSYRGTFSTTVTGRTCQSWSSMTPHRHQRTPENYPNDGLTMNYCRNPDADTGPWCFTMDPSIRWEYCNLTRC
Where a name gives a salt, the structure may show the parent alone.
measurement_label: pIC50
Please report pIC50 as the negative decimal logarithm of the molar concentration, giving only the number.

Lookup: Bench note: what pIC50 did COc1cc(F)cc(CNc2cccc(C[C@H](C(=O)O)[C@H]3CCNC3)c2)c1 [Example 6, hydrochloride] show?
Found: 8.33
